Experiment: clinical
Conditions: human, plasma, po, 60 mg
observed property: concentration at 6 h (ng/mL)

• CNCC[C@H](Oc1cccc2ccccc12)c1cccs1 [duloxetine] = 80.8
